# System: PC-3 prostate
# Method: NCI-60 one-dose screen, 48 h (100 = growth as untreated, 0 = no growth, -100 = all killed)
# Condition Details: 10 µM unless noted
The panel holds about 83,000 compounds, 20% with a hit somewhere; the sample as a whole holds those more often.
Exercise: state measured growth for each of the compounds provided.
Give bare numbers, in %.

Cc1cn(C2CC(F)C(CO)O2)c(=O)[nH]c1=O (stereo unspecified) : 93.8
N#CC(C#N)=C(C#N)c1c[nH]c2ccccc12 : 73.1
COc1cc(-c2nc3sc(C)cn3c2/C=C2\C(=O)Nc3ccccc32)c(Br)c(OC)c1OC : 26.5
COc1ccc(-c2ccc(NC(=O)Nc3ccc(Cl)c(C(F)(F)F)c3)c(C)n2)cc1 : 14.7

Provide growth for all items below, preserving their order.
1. O[C@@H]1CCO[C@H](c2ccc3ccccc3c2)C1
2. O=c1nc(N2CCOCC2)oc2c(-c3cccc4ccccc34)cccc12

Result:
95.5
59.7
